- experimental-system: recombinant human cannabinoid receptor CB1 (Homo sapiens, UniProt P21554)
- Construct: (cDNA clone) CNR01L000
- Sequence (P21554 whole entry): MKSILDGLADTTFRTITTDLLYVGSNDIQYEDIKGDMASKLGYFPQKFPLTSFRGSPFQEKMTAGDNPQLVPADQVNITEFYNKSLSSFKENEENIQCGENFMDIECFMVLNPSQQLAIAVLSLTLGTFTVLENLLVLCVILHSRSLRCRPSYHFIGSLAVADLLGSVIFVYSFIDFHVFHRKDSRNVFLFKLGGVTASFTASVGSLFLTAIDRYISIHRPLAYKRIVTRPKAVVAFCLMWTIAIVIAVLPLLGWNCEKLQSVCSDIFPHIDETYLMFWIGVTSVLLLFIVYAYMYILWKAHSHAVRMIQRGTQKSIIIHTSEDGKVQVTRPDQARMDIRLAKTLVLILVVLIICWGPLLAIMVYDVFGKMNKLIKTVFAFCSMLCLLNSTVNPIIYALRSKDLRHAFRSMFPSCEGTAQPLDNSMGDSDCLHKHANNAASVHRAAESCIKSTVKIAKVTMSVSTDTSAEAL
- test-name: Cannabinoid receptor radioligand binding assay, [3H]-CP 55,940 displacement, hCB1
measurement-kind: IC50

Some entries whose results are on file:
{"compound": "Cc1cc2cc(C(=O)c3cccc(Cl)c3Cl)sc2n1CC1CCCCN1C (stereo not shown)", "IC50": "100 to 1000 nM"}
{"compound": "Cc1ccc(C(=O)c2cc3cc(C)n(CCN4CCOCC4)c3s2)cn1", "IC50": "> 10000 nM"}
{"compound": "Cc1cc2cc(C(=O)c3cccc(Cl)c3Cl)sc2n1CCN1CCCC1", "IC50": "100 to 1000 nM"}
{"compound": "Cc1cc2cc(C(=O)c3cccc(Cl)c3Cl)sc2n1CCN1CCN(C)CC1", "IC50": "> 10000 nM"}
{"compound": "COc1ccc(C(=O)c2cc3cc(C)n(CCN4CCOCC4)c3s2)cn1", "IC50": "> 10000 nM"}
{"compound": "Cc1cc2cc(C(=O)c3ccc(Cl)c(Cl)c3)sc2n1CCN1CCOCC1", "IC50": "1000 to 10000 nM"}
{"compound": "COc1ccc(C(=O)c2cc3cc(C)n(CCN4CCOCC4)c3s2)c(Cl)c1", "IC50": "100 to 1000 nM"}
{"compound": "Cc1cc2cc(C(=O)c3cccc(Cl)c3)sc2n1CCN1CCOCC1", "IC50": "1000 to 10000 nM"}

Query block: Test system recombinant human cannabinoid receptor CB1 (Homo sapiens, UniProt P21554); read-out IC50; what value for COCCN(C)CCn1c(C)cc2cc(C(=O)c3ccc(OC)nc3)sc21 ?
Result block: 100 to 1000 nM

Query block: Also need COc1ccc(C(c2cc3cc(C)n(CCN4CCOCC4)c3s2)C(F)(F)F)cc1 (stereo not shown) , thanks.
Result block: 1000 to 10000 nM

Cited source: patent US20130029970A1
